# test: qHTS assay to identify small molecule agonists of the sonic hedgehog signaling (Shh) pathway (AID 1259368);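 note: NIH/3T3-derived 3T3Gli1-Luc cells carrying a stable Gli1-driven firefly luciferase reporter; nearly all actives have a fitted effect of over 15% in size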
# stated conditions: NIH/3T3 Gli1-Luc reporter, luciferase, 24 h; series mostly up to 92.4 µM
Calls of active or inactive are those of the source. Calls come from the whole dose curve.
measured attribute: activity change

molecule	measured attribute	test result
c1ccc2n[nH]nc2c1	activity change	inactive
c1ccc2cc3c(ccc4ccccc43)cc2c1	activity change	inactive
Cc1ccnc2c1NC(=O)c1cccnc1N2C1CC1	activity change	inactive
CCn1cc(C(=O)O)c(=O)c2cc(F)c(N3CCNC(C)C3)c(F)c21 (configuration not stated)	activity change	inactive
CC(COc1ccccc1)N(CCCl)Cc1ccccc1 (configuration not stated)	activity change	inactive
O=C(O)c1cccc(C(=O)O)c1	activity change	inactive
O=C(O)CCc1ccccc1	activity change	inactive
CCCOC(=O)c1cc(O)c(O)c(O)c1	activity change	inactive

Provide the reported activity change of each entry below, same order.
1. C[N+]1([O-])CCOCC1
2. CC(=O)CC(C)=O
3. O=Nc1ccc(Nc2ccccc2)cc1
4. COc1nc(C)nc(Cl)c1NC1=NCCN1

1. inactive
2. inactive
3. inactive
4. inactive

---

# test: A CellTox Green Cytotoxicity Assay to monitor cytotoxicity in HepG2 cells - 16 hour (AID 1224876); note: nearly all actives have a fitted effect of over 45% in size
# stated conditions: CellTox Green fluorescence; series mostly up to 76.8 µM
Inconclusive results are not listed. Active and inactive are the calls of the source. Calls come from the whole dose curve; as a rule, active = well fitted activation curve with a large enough effect in the repeat runs; inconclusive = weak or mixed curves; inactive = flat fitted curve, though single readings scatter.
measured attribute: outcome

Some entries whose results are on file:
compound	outcome
C=C(C)C(=O)O	inactive
CCN1CCCC1CNC(=O)c1cc(S(=O)(=O)CC)c(N)cc1OC (centres undefined)	inactive
O=C(O)CCc1ccccc1	inactive
Cc1ccc(S(=O)(=O)Oc2ccc(N=Nc3ccc(-c4ccc(N=Nc5c(O)ccc6cc(S(=O)(=O)O)cc(S(=O)(=O)O)c56)c(C)c4)cc3C)cc2)cc1	inactive
O=C1CC2(CCCC2)CC(=O)N1CCCCN1CCN(c2ncccn2)CC1	inactive
O=C(O)c1cn(-c2ccc(F)cc2)c2cc(N3CCNCC3)c(F)cc2c1=O	inactive
O=C1NCC2(CCN(CCc3ccccc3)CC2)O1	inactive
CC(C)(C)NC(=O)[C@@H]1CN(Cc2cccnc2)CCN1C[C@@H](O)C[C@@H](Cc1ccccc1)C(=O)N[C@H]1c2ccccc2C[C@H]1O	inactive
Cc1occc(=O)c1OC(=O)C(C)C	inactive
CCCCN(CCO)CCCC	inactive

Provide the reported outcome of each entry below, same order.
1. CC(=O)C1=C(C)[C@@H]2C[C@@]3(C1)[C@H](C)CC[C@H]3C2(C)C
2. CCn1c2ccccc2c2cc(N)ccc21
3. COC(=O)/C=C/c1ccccc1
4. CC(N)=O

1: inactive; 2: inactive; 3: inactive; 4: inactive

Provide the reported outcome of each entry below, same order.
1. Nc1cc(S(=O)(=O)O)cc2cc(S(=O)(=O)O)cc(O)c12
2. CC(COc1ccccc1)N(CCCl)Cc1ccccc1 (centres undefined)
3. OCCN1CCNCC1
4. NCCO
5. Cc1cccc([N+](=O)[O-])c1C(=O)O

1: inactive; 2: inactive; 3: inactive; 4: inactive; 5: inactive

---

# test: qHTS assay to identify small molecule antagonists of the retinoic acid receptor (RAR) signaling pathway (AID 1159552; note: nearly all actives have a fitted effect of over 50% in size)
# stated conditions: C3RL4 RARE luciferase reporter, retinol-stimulated, 6 h; series mostly up to 92.4 µM
Results filed as inconclusive are left out. Activity calls are given as the source filed them. The call rests on the fitted dose curve; in most records, active means well fitted inhibition curve with a large enough effect in the repeat runs; inconclusive means weak or mixed curves, or effect the other way; inactive means no such curve, though single readings can be large or run the other way.
measured attribute: activity, negative = inhibition

compound	activity, negative = inhibition
CCOC(=O)C(C)C(C)=O (centres undefined)	inactive
CC(C)(O)CCC(C)(C)O	inactive
NC(N)=Nc1nc(CSCC/C(N)=N/S(N)(=O)=O)cs1	inactive
CN1C(=O)c2ccc([N+](=O)[O-])cc2C1=O	inactive

Provide the reported activity, negative = inhibition of each entry below, same order.
1. COc1ccc(COC(C)=O)cc1
2. CCc1cc(C(C)(C)C)c(O)c(C(C)(C)C)c1
3. CO[Si](OC)(OC)c1ccccc1

1: inactive; 2: inactive; 3: inactive

Provide the reported activity, negative = inhibition of each entry below, same order.
1. COC(=O)c1cccc(C(=O)OC)c1
2. NCCCCCC(=O)O
3. CC(C)(c1ccccc1)c1ccc(Nc2ccc(C(C)(C)c3ccccc3)cc2)cc1
4. CCC[C@H](N[C@@H](C)C(=O)N1[C@H](C(=O)O)C[C@@H]2CCCC[C@@H]21)C(=O)OCC
5. CNC1(C)C2CCC(C2)C1(C)C (centres undefined)
6. CC(=O)N[C@@H](CS)C(=O)O

1. inactive
2. inactive
3. inactive
4. inactive
5. inactive
6. inactive

What activity, negative = inhibition value was documented for this compound, C=CC(=O)OCCCCCCCC ?
inactive

---

# tested on: Peroxisome proliferator-activated receptor gamma (Homo sapiens) (UniProt P37231)
# Sequence (P37231 whole entry, looked up): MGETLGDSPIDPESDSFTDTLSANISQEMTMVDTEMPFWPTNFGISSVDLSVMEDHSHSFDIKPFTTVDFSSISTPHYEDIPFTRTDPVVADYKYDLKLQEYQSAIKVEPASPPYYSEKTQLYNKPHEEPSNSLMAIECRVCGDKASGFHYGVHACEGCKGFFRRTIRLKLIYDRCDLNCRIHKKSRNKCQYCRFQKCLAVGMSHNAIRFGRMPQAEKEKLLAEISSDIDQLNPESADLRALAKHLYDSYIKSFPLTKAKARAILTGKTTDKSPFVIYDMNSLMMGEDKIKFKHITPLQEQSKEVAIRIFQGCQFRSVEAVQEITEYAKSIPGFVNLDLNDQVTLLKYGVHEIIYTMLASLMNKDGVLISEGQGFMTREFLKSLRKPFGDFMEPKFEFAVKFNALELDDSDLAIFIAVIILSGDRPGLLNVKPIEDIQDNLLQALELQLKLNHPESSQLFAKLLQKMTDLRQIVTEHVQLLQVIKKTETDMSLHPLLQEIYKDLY
# test: qHTS assay to identify small molecule agonists of the peroxisome proliferator-activated receptor gamma (PPARg) signaling pathway (AID 743094)
# stated conditions: HEK293H PPARg-UAS-bla, beta-lactamase FRET ratio, 17 h; series mostly up to 57 µM
Results filed as inconclusive are left out. Calls of active or inactive are those of the source. Calls come from the whole dose curve; as a rule, active = well fitted activation curve with a large enough effect in the signal ratio in the repeat runs (not every such curve was filed as active); inconclusive = weak or mixed curves, or effect the other way; inactive = no such curve, though single readings can be large or run the other way; the % refers to the signal ratio.

smiles string	outcome
O=C(O[C@@H]1Cc2c(O)cc(O)cc2O[C@@H]1c1cc(O)c(O)c(O)c1)c1cc(O)c(O)c(O)c1	inactive
OCCN1CCNCC1	inactive
c1ccc2cc3c(ccc4ccccc43)cc2c1	inactive

---

# test: A CellTox Green Cytotoxicity Assay to monitor cytotoxicity in HEK293 cells - 16 hour (AID 1224888); note: nearly all actives have a fitted effect of over 35% in size
# stated conditions: CellTox Green fluorescence; series mostly up to 76.8 µM
Records with an inconclusive call do not appear. Active and inactive are the calls of the source. Calls come from the whole dose curve; as a rule, active = well fitted activation curve with a large enough effect in the repeat runs; inconclusive = weak or mixed curves; inactive = flat fitted curve, though single readings scatter.
measured attribute: outcome

Some entries whose results are on file:
smiles string	measured attribute	test result
O=C(Cl)c1cccc(C(=O)Cl)c1	outcome	inactive
CC(=O)CC(=O)Nc1ccc2[nH]c(=O)[nH]c2c1	outcome	inactive
O=C1NCC2(CCN(CCc3ccccc3)CC2)O1	outcome	inactive
C1COC(NC(C2CC2)C2CC2)=N1	outcome	inactive
CCOc1ccccc1C(N)=O	outcome	inactive

Provide the reported outcome of each entry below, same order.
1. Cc1cccc2n[nH]nc12
2. CCC(CO)(CO)COCC(CC)(CO)CO
3. CCCCCCCCCCCC[N+](C)(C)C
4. Nc1cc(Cl)c(-c2cc(Cl)c(N)cc2Cl)cc1Cl
5. c1cnc2cc3c(cc2n1)C1CNCC3C1
6. CCCC(=O)c1ccccc1
7. CCCOC(=O)c1cc(O)c(O)c(O)c1
8. NC(N)=NC(=O)Cc1c(Cl)cccc1Cl

1: inactive; 2: inactive; 3: inactive; 4: inactive; 5: inactive; 6: inactive; 7: inactive; 8: inactive

What outcome value was documented for this compound, N[C@@H]1CONC1=O ?
inactive

---

# test: qHTS assay for small molecule agonists of the antioxidant response element (ARE) signaling pathway (AID 743202)
# stated conditions: HepG2 ARE-bla reporter, beta-lactamase FRET, 16 h; series mostly up to 73.3 µM
Inconclusive results are not listed. Active and inactive are the calls of the source. Calls follow the shape of the dose curve; as a rule, active = well fitted activation curve with a large enough effect in the signal ratio in the repeat runs (not every such curve was filed as active); inconclusive = weak or mixed curves, or effect the other way; inactive = no such curve, though single readings can be large or run the other way; the % refers to the signal ratio.
measured attribute: outcome

compound	outcome
CC(N)=O	inactive
CC(=O)N[C@@H](CS)C(=O)O	inactive
CC(C(O)c1ccc(O)cc1)N1CCC(Cc2ccccc2)CC1 (stereo not drawn)	inactive
O=C(O)CCc1ccccc1	inactive
CC(=O)C1=C(C)[C@@H]2C[C@@]3(C1)[C@H](C)CC[C@H]3C2(C)C	inactive
c1ccc2n[nH]nc2c1	inactive
Cc1scc2c1N(C(=O)CN1CCN(C)CC1)c1ccccc1NC2=O	inactive
NNCCc1ccccc1	inactive

Provide the reported outcome of each entry below, same order.
1. CC(C)(C)NC(=O)[C@@H]1CN(Cc2cccnc2)CCN1C[C@@H](O)C[C@@H](Cc1ccccc1)C(=O)N[C@H]1c2ccccc2C[C@H]1O
2. NC12CC3CC(CC(C3)C1)C2
3. Cc1cccc([N+](=O)[O-])c1C(=O)O
4. CC(=O)CC(=O)Nc1ccc2[nH]c(=O)[nH]c2c1

1: inactive; 2: inactive; 3: inactive; 4: inactive

What outcome value was documented for this compound, Nc1nc2ccccc2[nH]1 ?
inactive

---

# test: qHTS assay to identify small molecule agonists of the androgen receptor (AR) signaling pathway in the presence of an antagonist - cell viability counter screen (AID 1259379); note: nearly all actives have a fitted effect of over 25% in size
# stated conditions: MDA-kb2 viability, CellTiter-Fluor, 16 h; series mostly up to 92.4 µM
Inconclusive results are not listed. The source made the active and inactive calls. Calls come from the whole dose curve; as a rule, active = well fitted cell-killing curve with a large enough effect in the repeat runs; inconclusive = weak or mixed curves, or effect the other way; inactive = flat fitted curve, though single readings scatter.
Assign a class; possible classes are TRUE = active, FALSE = inactive

compound	label class
C#CC(C)(CC)OC(=O)c1ccccc1C(=O)O (configuration not stated)	FALSE
CCN(CC)C(=S)SSC(=S)N(CC)CC	FALSE

Assay outcome for O=C(O)Cn1cnnn1 : what was it?
FALSE

Assay outcome for COc1ccc(Cc2cnc(N)nc2N)cc1OC : what was it?
FALSE

Assay outcome for BrC1CCC(Br)C(Br)CCC(Br)C(Br)CCC1Br (configuration not stated) : what was it?
FALSE

Assay outcome for CCC(CO)(CO)COCC(CC)(CO)CO : what was it?
FALSE

Assay outcome for CCc1cc(C(C)(C)C)c(O)c(C(C)(C)C)c1 : what was it?
FALSE

Assay outcome for CC(C)CCOC(=O)c1ccc(N(C)C)cc1 : what was it?
FALSE

Assay outcome for c1ccc2c(c1)-c1cccc3c1c-2cc1ccccc13 : what was it?
FALSE

Assay outcome for CCOc1ccc2c(c1)C(C)=CC(C)(C)N2 : what was it?
FALSE

Assay outcome for O=Cc1ccc(Cl)cc1 : what was it?
FALSE

Assay outcome for c1ccc2c(c1)CCCC2C1=NCCN1 (configuration not stated) : what was it?
FALSE

Assay outcome for NCCO : what was it?
FALSE

Assay outcome for NC12CC3CC(CC(C3)C1)C2 : what was it?
FALSE

Assay outcome for CC(=O)Nc1ccc(C(=O)CCl)cc1 : what was it?
TRUE

Every entry's value here was drawn from PubChem BioAssay (Tox21).
